subject-of-test: PEG-3 (UniProt Q6IN02)
Sequence (Q6IN02 whole entry, looked up): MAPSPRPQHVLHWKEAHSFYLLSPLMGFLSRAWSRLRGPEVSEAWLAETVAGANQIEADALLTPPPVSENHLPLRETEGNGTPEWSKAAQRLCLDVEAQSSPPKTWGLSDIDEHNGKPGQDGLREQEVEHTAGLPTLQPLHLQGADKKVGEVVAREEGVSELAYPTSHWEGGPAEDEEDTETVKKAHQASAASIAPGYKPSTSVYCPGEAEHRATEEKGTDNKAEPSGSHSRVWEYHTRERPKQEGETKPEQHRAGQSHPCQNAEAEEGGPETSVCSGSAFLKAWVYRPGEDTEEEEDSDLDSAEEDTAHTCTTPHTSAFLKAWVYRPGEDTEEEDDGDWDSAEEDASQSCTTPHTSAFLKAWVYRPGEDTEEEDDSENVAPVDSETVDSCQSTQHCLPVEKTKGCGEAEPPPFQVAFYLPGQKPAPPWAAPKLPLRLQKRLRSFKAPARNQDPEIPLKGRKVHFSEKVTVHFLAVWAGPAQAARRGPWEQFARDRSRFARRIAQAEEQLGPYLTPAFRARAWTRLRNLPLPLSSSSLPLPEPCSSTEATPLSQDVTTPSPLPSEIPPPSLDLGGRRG
protocol-details: Peg3 promoter luciferase inhibitors, potency, dose response, cell-based, HeLa, CREF/GAPDH counter-screen panel (AID 624167)
protocol-conditions: CREF/GAPDH counter-screens; HeLa PEG-Prom luciferase reporter, overnight, run 2, dose range 1, at 100 µM (top of the series) unless noted
assay-endpoint: inhibition (%)
Please state the figure in %; there is no need to write the unit.

| compound | assay-endpoint | value-measured |
| --- | --- | --- |
| CCc1ccn2cc(-c3ccc4c(c3)OCO4)nc2c1 | inhibition | 89.2 |

Data request, read-out inhibition, for COc1ccccc1NC(=O)Nc1nc(C(N)CCc2ccccc2)cs1 (configuration not stated)
102

How about this compound: `O=C(/C=C/Nc1ccccc1Br)c1ccccn1`
99.5

Param item: `COc1ccc(CN(C)C(=O)c2cc(-c3ccc(C)cc3C)nc3ccccc23)c(OC)c1OC`
102

Another compound: `O=C(CN1C(=O)c2ccccc2S1(=O)=O)c1ccc2c(c1)OCCO2`
101

For `CC(C)(C)c1ccc(Cn2c(=O)cnc3ccccc32)cc1` then?
100

Ok, now `CC(=O)c1cccc(NC(=O)c2cccc3c(-c4cccnc4)coc23)c1`
47

Repeat with `O=C(Sc1cccc2cccnc12)c1ccccc1Br`
93.8

// same read-out, input: `COc1nc(N)c(C#N)c(-c2ccc(N(C)CCC#N)cc2)c1C#N`
53

Try this compound next: `O=C(Nc1ccc(N2CCOCC2)cc1)c1cnsn1`
98.9

Would you mind doing `O=C(C(=O)N(Cc1ccccc1)Cc1ccccc1)c1c(-c2ccccc2)[nH]c2ccccc12` as well?
46.6

Follow-up entry: CCC(C)Sc1ccc(-c2nc3ccccn3c2NCc2ccccc2)cc1OC (configuration not stated)
89.4

What about `COc1cc(/C=C/[N+](=O)[O-])ccc1OC(=O)/C=C/c1ccc(F)cc1` ?
-151
